# target-or-system: SIK2 (Homo sapiens (Human))
# Sequence (Q9H0K1 whole entry, species assumed): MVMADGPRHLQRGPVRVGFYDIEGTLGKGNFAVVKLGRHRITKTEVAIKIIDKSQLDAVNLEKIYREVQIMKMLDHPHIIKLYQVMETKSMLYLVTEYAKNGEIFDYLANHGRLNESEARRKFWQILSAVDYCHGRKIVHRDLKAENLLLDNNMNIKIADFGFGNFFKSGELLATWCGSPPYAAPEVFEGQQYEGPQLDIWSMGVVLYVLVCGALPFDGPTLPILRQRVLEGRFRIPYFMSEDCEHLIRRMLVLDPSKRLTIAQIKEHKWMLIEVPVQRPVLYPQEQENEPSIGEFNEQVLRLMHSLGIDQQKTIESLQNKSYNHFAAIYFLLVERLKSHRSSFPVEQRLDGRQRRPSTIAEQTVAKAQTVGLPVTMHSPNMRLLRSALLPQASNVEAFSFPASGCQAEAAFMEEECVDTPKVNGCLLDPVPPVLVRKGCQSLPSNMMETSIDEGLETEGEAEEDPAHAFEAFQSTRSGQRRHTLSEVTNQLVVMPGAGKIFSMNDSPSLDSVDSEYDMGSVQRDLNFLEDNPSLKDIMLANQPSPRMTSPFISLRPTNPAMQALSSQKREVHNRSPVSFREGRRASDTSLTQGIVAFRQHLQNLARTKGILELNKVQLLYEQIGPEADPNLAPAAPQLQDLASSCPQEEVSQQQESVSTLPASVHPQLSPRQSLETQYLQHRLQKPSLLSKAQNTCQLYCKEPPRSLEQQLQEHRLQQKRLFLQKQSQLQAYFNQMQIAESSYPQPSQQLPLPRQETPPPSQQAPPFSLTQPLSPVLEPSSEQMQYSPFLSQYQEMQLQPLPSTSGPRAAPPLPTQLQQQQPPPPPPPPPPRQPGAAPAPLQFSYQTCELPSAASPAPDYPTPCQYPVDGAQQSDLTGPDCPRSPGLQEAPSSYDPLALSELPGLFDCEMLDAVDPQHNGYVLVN
# experimental-details: SIK2 Enzymatic Assay Version 2 (High ATP)
# Format: biochemical
# test-parameters: 3 mM ATP and 200 μM HDAC5tide final, ADP-Glo Max luminescence

{"compound": "Cn1ncc(COC2(C)CNC2)c1-c1ccn2nc(NC(=O)C3CC3)cc2c1", "IC50": "11.3 nM"}
{"compound": "Cc1onc(OC[C@H](N)c2ccccc2F)c1-c1ccn2nc(NC(=O)C3CC3)cc2c1", "IC50": "23.2 nM"}
{"compound": "CN1CC[C@@H]1COc1cnn(C)c1-c1ccn2nc(NC(=O)[C@@H]3C[C@@H]3F)cc2c1", "IC50": "30.3 nM"}
{"compound": "CO[C@H]1CNC[C@H]1Oc1noc(C)c1-c1ccn2nc(NC(=O)C3CC3)cc2c1 (single isomer, unassigned) [Example 385]", "IC50": "124 nM"}

----------
# target-or-system: SIK2 (Homo sapiens (Human))
# experimental-details: SIK2 Enzymatic Assay Version 2 (High ATP)
# Type: biochemical
# test-parameters: 3 mM ATP and 200 μM HDAC5tide final, ADP-Glo Max luminescence
pIC50: −log10 of the molar value.
Class Met: pIC50 at least 8. Class Not met: pIC50 below 8.

{"compound": "CCN1CC[C@@H]1COc1cnn(C)c1-c1ccn2nc(Nc3cc(C(F)(F)F)nc(C)n3)cc2c1 [Example 162]", "target-or-system": "SIK2 (Homo sapiens (Human))", "assigned-label": "Met"}
{"compound": "CCC1(COc2cnn(C)c2-c2ccn3nc(NC(=O)C4CC4)cc3c2)CN(C)C1 [Example 408]", "target-or-system": "SIK2 (Homo sapiens (Human))", "assigned-label": "Not met"}
{"compound": "Cc1cc(Nc2cc3cc(-c4c(OC[C@H]5CCCN5C)cnn4C)ccn3n2)nc(C(F)(F)F)n1 [Example 283]", "target-or-system": "SIK2 (Homo sapiens (Human))", "assigned-label": "Met"}
{"compound": "CN1CC[C@@H]1COc1cnn(C)c1-c1ccn2nc(NC(=O)[C@H]3C[C@@H]3c3ccccc3)cc2c1 (racemic) [Example 71]", "target-or-system": "SIK2 (Homo sapiens (Human))", "assigned-label": "Not met"}
{"compound": "C[C@H]1CN(C)[C@H]1COc1cnn(C)c1-c1ccn2nc(NC(=O)C3CC3)cc2c1 [Example 437]", "target-or-system": "SIK2 (Homo sapiens (Human))", "assigned-label": "Not met"}
{"compound": "CN1CC[C@@H]1COc1cnn(C)c1-c1ccn2nc(Nc3ccnc(NC4CC4)n3)cc2c1 [Example 128]", "target-or-system": "SIK2 (Homo sapiens (Human))", "assigned-label": "Met"}
{"compound": "CN1CC[C@H](Oc2cnn(C)c2-c2ccn3nc(Nc4cc5ccccc5nn4)cc3c2)C1 [Example 342]", "target-or-system": "SIK2 (Homo sapiens (Human))", "assigned-label": "Not met"}
{"compound": "Cn1ncc(OC[C@H]2CNC[C@@H]2O)c1-c1ccn2nc(NC(=O)C3CC3)cc2c1 [Example 345]", "target-or-system": "SIK2 (Homo sapiens (Human))", "assigned-label": "Not met"}
{"compound": "Cc1ncc(Nc2cc3cc(-c4c(OC[C@H]5CCN5C)cnn4C)ccn3n2)nc1C [Example 23]", "target-or-system": "SIK2 (Homo sapiens (Human))", "assigned-label": "Met"}
{"compound": "CCN1CC[C@@H]1COc1cnn(C)c1-c1ccn2nc(Nc3cc(OC)ncn3)cc2c1 [Example 167]", "target-or-system": "SIK2 (Homo sapiens (Human))", "assigned-label": "Met"}
{"compound": "CCN1CC[C@@H]1COc1cnn(C)c1-c1ccn2nc(Nc3cc(C)nc(C4CC4)n3)cc2c1 [Example 171]", "target-or-system": "SIK2 (Homo sapiens (Human))", "assigned-label": "Met"}
{"compound": "Cc1cc(Nc2cc3cc(-c4c(OC[C@H]5CCN5C)cnn4C)ccn3n2)nc(CC2CC2)n1 [Example 153]", "target-or-system": "SIK2 (Homo sapiens (Human))", "assigned-label": "Met"}
{"compound": "Cc1onc(OC[C@H]2CCN2C)c1-c1ccc2nc(NC(=O)C3CC3)cn2c1 [Example 329]", "target-or-system": "SIK2 (Homo sapiens (Human))", "assigned-label": "Not met"}
{"compound": "Cc1cc(Nc2cc3cc(-c4c(OC[C@@H]5CCN5C)cnn4C)ccn3n2)nc(C)n1 [Example 139]", "target-or-system": "SIK2 (Homo sapiens (Human))", "assigned-label": "Not met"}
{"compound": "Cn1ncc(OC[C@H]2CCN2C[C@H]2CCCO2)c1-c1ccn2nc(NC(=O)C3CC3)cc2c1 [Example 259]", "target-or-system": "SIK2 (Homo sapiens (Human))", "assigned-label": "Not met"}
{"compound": "Cc1onc(OC[C@@H](c2ccccc2F)N(C)C)c1-c1ccn2nc(NC(=O)C3CC3)cc2c1 [Example 222]", "target-or-system": "SIK2 (Homo sapiens (Human))", "assigned-label": "Not met"}
{"compound": "CN1CC[C@@H]1COc1cnn(C)c1-c1ccn2nc(Nc3cnn(C)c3)cc2c1 [Example 142]", "target-or-system": "SIK2 (Homo sapiens (Human))", "assigned-label": "Met"}
{"compound": "Cc1onc(OC[C@H]2CCCCN2C)c1-c1ccn2nc(NC(=O)C3CC3)cc2c1 [Example 502]", "target-or-system": "SIK2 (Homo sapiens (Human))", "assigned-label": "Not met"}
{"compound": "COc1nnc(Nc2cc3cc(-c4c(OC[C@H]5CCN5C)cnn4C(F)F)ccn3n2)cc1C [Example 97]", "target-or-system": "SIK2 (Homo sapiens (Human))", "assigned-label": "Met"}
{"compound": "Cc1onc(O[C@H]2C[C@@H]3C[C@H]2CN3)c1-c1ccn2nc(NC(=O)C3CC3)cc2c1 (single isomer, unassigned) [Example 217]", "target-or-system": "SIK2 (Homo sapiens (Human))", "assigned-label": "Not met"}
{"compound": "CN1CC2(CCOCC2)[C@H]1COc1cnn(C)c1-c1ccn2nc(NC(=O)C3CC3)cc2c1 (single isomer, unassigned) [Example 59]", "target-or-system": "SIK2 (Homo sapiens (Human))", "assigned-label": "Not met"}
{"compound": "[2H]C([2H])([2H])C([2H])([2H])N1CC[C@@H]1COc1cnn(C)c1-c1ccn2nc(NC(=O)C3CC3)cc2c1 [Example 254]", "target-or-system": "SIK2 (Homo sapiens (Human))", "assigned-label": "Met"}
{"compound": "Cc1cc(Nc2cc3cc(-c4c(OC[C@](C)(O)C5CC5)cnn4C)ccn3n2)nc(C)n1 (single isomer, unassigned) [Example 304]", "target-or-system": "SIK2 (Homo sapiens (Human))", "assigned-label": "Not met"}
{"compound": "CN1CC[C@H](Oc2cnn(C)c2-c2ccn3nc(Nc4cnc5ccccc5n4)cc3c2)C1 [Example 343]", "target-or-system": "SIK2 (Homo sapiens (Human))", "assigned-label": "Not met"}

----------
Here, each record is paired with measured pIC50 data.
# target-or-system: SIK2 (Homo sapiens (Human))
# experimental-details: SIK2 Enzymatic Assay Version 2 (High ATP)
# Format: biochemical
# test-parameters: 3 mM ATP and 200 μM HDAC5tide final, ADP-Glo Max luminescence
pIC50: −log10 of the molar value.

{"compound": "Cc1cc(Nc2cc3cc(-c4c(OC[C@@]5(F)CCNC5)cnn4C(F)F)ccn3n2)nc(C)n1 (single isomer, unassigned)", "relation-operator": "=", "pIC50": 8.33}
{"compound": "CN1CC[C@H](Oc2cnn(C)c2-c2ccn3nc(Nc4cc(C(F)(F)F)ncn4)cc3c2)C1", "relation-operator": "=", "pIC50": 6.84}
{"compound": "[2H]C([2H])([2H])N1CC[C@@H]1COc1cnn(C([2H])([2H])[2H])c1-c1ccn2nc(Nc3cc(C)nc(C)n3)cc2c1", "relation-operator": ">", "pIC50": 9.07}
{"compound": "Cc1onc(O[C@H]2C[C@H](N)C2)c1-c1ccn2nc(NC(=O)C3CC3)cc2c1", "relation-operator": "=", "pIC50": 6.95}
{"compound": "Cc1onc(O[C@H]2CCN(C)C2)c1-c1ccn2nc(NC(=O)C3CC3)cc2c1", "relation-operator": "=", "pIC50": 7.02}
{"compound": "CCN1CC2(CC2)[C@@H]1COc1cnn(C)c1-c1ccn2nc(NC(=O)C3CC3)cc2c1 (single isomer, unassigned)", "relation-operator": "=", "pIC50": 6.66}
{"compound": "Cc1onc(OC[C@@H]2CCCN2C)c1-c1ccn2nc(NC(=O)C3CC3)cc2c1", "relation-operator": "=", "pIC50": 6.37}
